# Tested on: MDA-MB-468 breast
# Protocol details: NCI tumour cell line growth inhibition, 48 h
Measured metric: TGI (nM)
Give bare numbers, in nM.

# annotated cases, reported TGI shown
{"Input smiles": "CCc1nc2cc(F)c(/C=C/C(=O)NO)cc2c(=O)n1CCc1ccccc1", "Measure unit": "nM", "TGI": 761}
{"Input smiles": "Cc1cc(C)c(NC(=O)c2sc3nc4c(cc3c2N)C(=O)CCC4)c(C)c1", "Measure unit": "nM", "TGI": 4390}
{"Input smiles": "CCc1ccccc1-c1nc(CN[C@@H]2C[C@@H]3C[C@H]([C@H]2C)C3(C)C)c(C)o1", "Measure unit": "nM", "TGI": 2870}
{"Input smiles": "COc1cc(OC)c(C(=O)/C=C/c2cccc(C(F)(F)F)c2)c(OC)c1", "Measure unit": "nM", "TGI": 2010}

Shifting focus to the compound that follows.
Q) Entry COc1ccc(-c2nc3ccccn3c2/C=C/C(=O)c2cc(OC)c(OC)c(OC)c2)cc1OC , system MDA-MB-468 breast: what TGI was measured?
A) 5710
